assay: chemical genetic growth profiling, strain panel (AID 1159580);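 also: tested at 20 µM; growth read once vehicle control cultures reached saturation at 30 °C; 1 = growth at the plate median or of vehicle wells; lower values mean less growth of the strain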; conditions: S. cerevisiae deletion strains, growth OD, locus YLR221C, strain rsa3, active compounds read low
The campaign covered roughly 5,500 compounds. About 2,000 (36%) were called active. Roughly 18% stayed inconclusive and do not appear here. Some of the results follow.
Kindly state normalized growth for each of the entries shown.
Could you respond with only the numeric value?

Data request: Please look up its normalized growth: CC(C)(C)NCC(O)c1ccc(O)c(CO)c1 (stereo not drawn)
Data returned: 1.01

Data request: Please look up its normalized growth: C=C1c2c(Cl)ccc(O)c2C(O)=C2C(=O)[C@]3(O)C(O)=C(C(N)=O)C(=O)[C@@H](N(C)C)[C@@H]3[C@@H](O)[C@H]12
Data returned: 0.935

Data request: Please look up its normalized growth: COC1CC2CCC(C)C(O)(O2)C(=O)C(=O)N2CCCCC2C(=O)OC(C(C)CC2CCC(O)C(OC)C2)CC(=O)C(C)/C=C(\C)C(O)C(OC)C(=O)C(C)CC(C)/C=C/C=C/C=C/1C (stereo not drawn)
Data returned: 0.0587

Data request: Please look up its normalized growth: COc1cc(C(C)=O)cc(OC)c1O
Data returned: 1.04

Data request: Please look up its normalized growth: CC(=O)Oc1ccc(/C=C/c2cc(OC(C)=O)cc(OC(C)=O)c2)cc1
Data returned: 0.949

Data request: Please look up its normalized growth: CNNC
Data returned: 1.01

Data request: Please look up its normalized growth: O=C(OOC(=O)c1ccccc1)c1ccccc1
Data returned: 0.93

Data request: Please look up its normalized growth: N=C(N)N
Data returned: 0.982

Data request: Please look up its normalized growth: COc1cc(C/C=C/c2ccccc2)c(OC)cc1O
Data returned: 1

Data request: Please look up its normalized growth: NCC(N)C(=O)c1ccccc1 (stereo not drawn)
Data returned: 1.04

Data request: Please look up its normalized growth: CCCOc1ccc2nc(NC(=O)OC)[nH]c2c1
Data returned: 1.01

Data request: Please look up its normalized growth: CC(=O)c1ccc(O)c(CC=C(C)C)c1
Data returned: 0.905

Data request: Please look up its normalized growth: CC(N=C(NC#N)Nc1ccncc1)C(C)(C)C (stereo not drawn)
Data returned: 1.02

Data request: Please look up its normalized growth: Cc1c(C)c2c(c(C)c1O)CCC(C)(CCCC(C)CCCC(C)CCCC(C)C)O2 (stereo not drawn)
Data returned: 1.01

Data request: Please look up its normalized growth: CC1=CCCC2C1(C)CCC(C)C2(C)CC/C(C)=C/C[n+]1cn(C)c2c(N)ncnc21 (stereo not drawn)
Data returned: 1.02

Data request: Please look up its normalized growth: CCCSc1ccc2nc(NC(=O)OC)[nH]c2c1
Data returned: 1.01

Data request: Please look up its normalized growth: C=C1c2cccc(O)c2C(O)=C2C(=O)[C@]3(O)C(O)=C(C(N)=O)C(=O)[C@@H](N(C)C)[C@@H]3[C@@H](O)[C@H]12
Data returned: 0.996

Data request: Please look up its normalized growth: CC(=O)O[C@@H]1CC2C(C)(C)C(=O)C=C[C@]2(C)C2CC[C@]3(C)C(=CC(=O)O[C@H]3c3ccoc3)[C@@]21C (stereo partly drawn)
Data returned: 1

Data request: Please look up its normalized growth: CC(=O)c1cc(CC=C(C)C)c(O)c(CC=C(C)C)c1
Data returned: 1

Data request: Please look up its normalized growth: CC(=O)Oc1ccc(C(c2ccc(OC(C)=O)cc2)c2ccccn2)cc1
Data returned: 1.02

Data request: Please look up its normalized growth: CCOC(=O)[C@H](CCc1ccccc1)N[C@@H](C)C(=O)N1CCC[C@H]1C(=O)O
Data returned: 0.975

Data request: Please look up its normalized growth: NC(=O)NC(=O)Cc1ccccc1
Data returned: 1.03

Data request: Please look up its normalized growth: NCC(=O)c1ccccc1
Data returned: 1.02

Data request: Please look up its normalized growth: CC(Cc1cccc(C(F)(F)F)c1)NCCOC(=O)c1ccccc1 (stereo not drawn)
Data returned: 0.956

Data request: Please look up its normalized growth: CC(CCC(=O)O)[C@H]1CCC2C3C(=O)C[C@@H]4CC(=O)CC[C@]4(C)C3CC(=O)[C@@]21C (stereo partly drawn)
Data returned: 0.964

Data request: Please look up its normalized growth: CN(C)[C@@H]1C(=O)C(C(N)=O)=C(O)[C@@]2(O)C(=O)C3=C(O)c4c(O)cccc4[C@@](C)(O)[C@H]3[C@H](O)[C@@H]12
Data returned: 1.01

Data request: Please look up its normalized growth: OC[C@H]1O[C@@](CO)(O[C@@H]2O[C@H](CO)[C@@H](O)[C@H](O)[C@H]2O)[C@@H](O[C@@H]2O[C@H](CO)[C@@H](O)[C@H](O)[C@H]2O)[C@@H]1O
Data returned: 1.01

Data request: Please look up its normalized growth: N[C@@H](CCC(=O)N[C@@H](CS)C(=O)NCC(=O)O)C(=O)O
Data returned: 1

Data request: Please look up its normalized growth: C/C1=C/CC(C)(C)/C=C/C/C(C)=C/CC1
Data returned: 0.961

Data request: Please look up its normalized growth: CC(C)C[C@@H](CN)CC(=O)O
Data returned: 0.998

Data request: Please look up its normalized growth: CN(C)C(=O)Oc1cccc([N+](C)(C)C)c1
Data returned: 0.99

Data request: Please look up its normalized growth: CC(=O)O[C@@H]1CC2C(C)(C)[C@H](O)C=C[C@]2(C)C2CC[C@]3(C)C(=CC(=O)O[C@H]3c3ccoc3)[C@@]21C (stereo partly drawn)
Data returned: 0.993

Data request: Please look up its normalized growth: CC(CCc1ccccc1)NCC(O)c1ccc(O)c(C(N)=O)c1 (stereo not drawn)
Data returned: 1.01

Data request: Please look up its normalized growth: CCN(CC)CCOCCOC(=O)C1(c2ccccc2)CCCC1
Data returned: 0.987

Data request: Please look up its normalized growth: CC(=O)Oc1cccc(O)c1
Data returned: 1.03

Data request: Please look up its normalized growth: CCOC(=O)NNc1nncc2ccccc12
Data returned: 0.976

Data request: Please look up its normalized growth: CNCCCC12CCC(c3ccccc31)c1ccccc12
Data returned: 0.998

Data request: Please look up its normalized growth: CC(=O)O[C@@H]1C=C[C@@]2(C)C(C[C@@H](OC(C)=O)[C@@]3(C)C4=CC(=O)O[C@@H](c5ccoc5)[C@]4(C)CCC23)C1(C)C (stereo partly drawn)
Data returned: 1.05
